Catalogue of signal/noise ratio values
# Measured on: T1, recombinant Ovr110-hFc encoded by Ovr110 Construct 2 (human)
# T1 construct: Captured on plates by goat anti-human IgG Fc; also called Ovr110-hFc (with TM)
# T1 chain: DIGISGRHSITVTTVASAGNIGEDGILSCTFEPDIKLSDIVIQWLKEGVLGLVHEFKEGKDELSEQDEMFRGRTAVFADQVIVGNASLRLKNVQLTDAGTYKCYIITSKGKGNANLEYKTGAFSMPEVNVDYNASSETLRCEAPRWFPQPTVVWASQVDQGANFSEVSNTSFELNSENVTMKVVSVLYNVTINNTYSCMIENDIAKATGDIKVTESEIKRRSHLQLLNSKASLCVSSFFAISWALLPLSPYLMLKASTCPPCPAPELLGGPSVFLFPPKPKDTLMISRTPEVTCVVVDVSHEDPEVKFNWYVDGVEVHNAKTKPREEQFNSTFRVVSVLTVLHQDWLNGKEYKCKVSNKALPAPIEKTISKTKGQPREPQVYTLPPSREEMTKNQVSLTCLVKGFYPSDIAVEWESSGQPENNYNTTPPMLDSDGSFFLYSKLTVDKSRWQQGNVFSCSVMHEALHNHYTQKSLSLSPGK
# Assay explanation: competition ELISA; row = unlabeled blocking MAb; competitor = biotinylated detecting MAb Q15.2
Answer with the value's number alone.

Below, each entry is followed by its recorded signal/noise ratio result.
>  <Binder>
Ovr110.Q23 (antibody, IgG1, V domains shown, Mouse hybridoma MAb; also called Q23.6) VH: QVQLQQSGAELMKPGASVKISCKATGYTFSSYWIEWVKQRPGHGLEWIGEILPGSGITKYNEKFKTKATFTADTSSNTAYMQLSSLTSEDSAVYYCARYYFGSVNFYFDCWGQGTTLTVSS VL: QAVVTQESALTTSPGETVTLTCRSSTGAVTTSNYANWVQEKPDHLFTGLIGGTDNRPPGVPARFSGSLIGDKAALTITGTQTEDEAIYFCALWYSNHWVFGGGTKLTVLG

>  <signal/noise ratio>
2.9

$$$$
>  <Binder>
Ovr110.Q27 (antibody, IgG1, V domains shown, Mouse hybridoma MAb; also called Q27.4; Q27.2) VH: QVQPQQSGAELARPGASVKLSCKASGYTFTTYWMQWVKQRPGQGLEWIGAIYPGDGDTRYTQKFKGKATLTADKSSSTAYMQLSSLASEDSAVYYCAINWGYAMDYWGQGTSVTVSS VL: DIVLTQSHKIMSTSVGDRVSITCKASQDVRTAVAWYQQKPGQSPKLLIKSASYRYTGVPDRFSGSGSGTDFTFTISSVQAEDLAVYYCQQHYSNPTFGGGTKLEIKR

>  <signal/noise ratio>
11.8

$$$$
>  <Binder>
Ovr110.Q11 (antibody, V domains shown, Mouse hybridoma MAb; also called Q11.12.3; Ovr110.Q11.12.3) VH: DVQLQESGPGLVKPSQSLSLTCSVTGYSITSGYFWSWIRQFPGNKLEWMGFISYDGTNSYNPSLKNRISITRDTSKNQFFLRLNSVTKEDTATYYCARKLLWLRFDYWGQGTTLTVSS VL: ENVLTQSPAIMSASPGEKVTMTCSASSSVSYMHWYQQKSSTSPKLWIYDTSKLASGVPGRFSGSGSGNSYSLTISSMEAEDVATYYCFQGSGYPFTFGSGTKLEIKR

>  <signal/noise ratio>
11.7

$$$$

QUERY: Quick one: signal/noise ratio for Ovr110.Q19 (antibody, IgG1, V domains shown, Mouse hybridoma MAb; also called Q19.6; Ovr110.Q19.6) VH: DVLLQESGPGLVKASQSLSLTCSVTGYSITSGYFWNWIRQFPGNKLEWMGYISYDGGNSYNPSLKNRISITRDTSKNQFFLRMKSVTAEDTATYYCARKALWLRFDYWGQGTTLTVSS VL: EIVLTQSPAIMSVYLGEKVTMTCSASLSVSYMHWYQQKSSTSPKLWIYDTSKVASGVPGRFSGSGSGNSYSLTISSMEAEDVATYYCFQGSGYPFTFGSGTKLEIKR ?
RESULT: 11.7

QUERY: I'd like to know its signal/noise ratio. The binder in question is Ovr110.Q12 (antibody, IgG1, V domains shown, Mouse hybridoma MAb; also called Q12.2; Ovr110.Q12.2) VH: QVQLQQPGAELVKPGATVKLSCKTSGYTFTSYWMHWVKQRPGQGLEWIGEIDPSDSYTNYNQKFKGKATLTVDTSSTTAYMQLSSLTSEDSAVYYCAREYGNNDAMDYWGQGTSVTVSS VL: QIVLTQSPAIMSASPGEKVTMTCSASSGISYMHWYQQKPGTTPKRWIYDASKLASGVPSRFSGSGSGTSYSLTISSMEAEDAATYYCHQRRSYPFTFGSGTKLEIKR
RESULT: 11.6
